Biological target: Oxytocin receptor (Homo sapiens)
Sequence (P30559 whole entry): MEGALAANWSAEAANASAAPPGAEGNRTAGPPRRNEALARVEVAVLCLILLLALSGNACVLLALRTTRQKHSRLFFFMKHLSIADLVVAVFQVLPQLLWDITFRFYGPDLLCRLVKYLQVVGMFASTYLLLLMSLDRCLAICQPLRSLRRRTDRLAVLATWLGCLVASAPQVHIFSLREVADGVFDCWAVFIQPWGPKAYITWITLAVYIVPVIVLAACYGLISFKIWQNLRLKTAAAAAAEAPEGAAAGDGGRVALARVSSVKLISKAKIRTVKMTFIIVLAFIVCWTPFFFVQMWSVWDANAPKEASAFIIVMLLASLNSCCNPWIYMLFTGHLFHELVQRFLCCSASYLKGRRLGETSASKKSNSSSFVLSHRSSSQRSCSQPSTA
Experiment: Binding affinity to human oxytocin receptor
Conditions: read-out: Log Ki (converted)
Note to self: Ki under 1 nM means true, ties and anything higher get false.

Inquiry: For this molecule, is Ki lower than 1 nM? `CC(C)C[C@@H]1C(=O)N[C@H](C2Cc3ccccc3C2)C(=O)N1[C@@H](C(=O)NC(C)C)c1ccc(Br)s1`
Reply text: false

Inquiry: For this molecule, is Ki lower than 1 nM? `Cc1nc([C@H](C(=O)N(C)CCO)N2C(=O)[C@@H](C3Cc4ccccc4C3)NC(=O)[C@H]2CC(C)C)co1`
Reply text: false

Inquiry: For this molecule, is Ki lower than 1 nM? `Cc1nc([C@H](C(=O)N2CCOCC2)N2C(=O)[C@@H](C3Cc4ccccc4C3)NC(=O)[C@H]2CC(C)C)co1`
Reply text: false

Inquiry: For this molecule, is Ki lower than 1 nM? `Cc1cc([C@H](C(=O)NC(C)C)N2C(=O)[C@@H](C3Cc4ccccc4C3)NC(=O)[C@H]2CC(C)C)oc1C`
Reply text: false

Inquiry: For this molecule, is Ki lower than 1 nM? `CC(C)C[C@@H]1C(=O)N[C@H](C2Cc3ccccc3C2)C(=O)N1[C@@H](C(=O)NC(C)C)c1ccco1`
Reply text: false

Inquiry: For this molecule, is Ki lower than 1 nM? `CC(C)C[C@@H]1C(=O)N[C@H](C2Cc3ccccc3C2)C(=O)N1[C@@H](C(=O)NC(C)C)c1ccc(C(F)(F)F)o1`
Reply text: true

Inquiry: For this molecule, is Ki lower than 1 nM? `CC(C)C[C@@H]1C(=O)N[C@H](C2Cc3ccccc3C2)C(=O)N1[C@@H](C(=O)NC(C)C)c1coc(C(F)(F)F)n1`
Reply text: true

Inquiry: For this molecule, is Ki lower than 1 nM? `CC(C)C[C@@H]1C(=O)N[C@H](C2Cc3ccccc3C2)C(=O)N1[C@@H](C(=O)N(C)C)c1coc(C2CC2)n1`
Reply text: true

Inquiry: For this molecule, is Ki lower than 1 nM? `Cc1nc([C@H](C(=O)NC(C)C)N2C(=O)[C@@H](C3Cc4ccccc4C3)NC(=O)[C@H]2CC(C)C)co1`
Reply text: false

Inquiry: For this molecule, is Ki lower than 1 nM? `CC(C)C[C@@H]1C(=O)N[C@H](C2Cc3ccccc3C2)C(=O)N1[C@@H](C(=O)NC(C)(C)C)c1ccoc1`
Reply text: false

Inquiry: For this molecule, is Ki lower than 1 nM? `CC(C)C[C@@H]1C(=O)N[C@H](C2Cc3ccccc3C2)C(=O)N1[C@@H](C(=O)NC(C)C)c1ccc(Br)o1`
Reply text: true

Inquiry: For this molecule, is Ki lower than 1 nM? `CC(C)C[C@@H]1C(=O)N[C@H](C2Cc3ccccc3C2)C(=O)N1[C@@H](C(=O)NC(C)C)c1cccs1`
Reply text: false

Cited source for all entries: ChEMBL document CHEMBL1142309
